Test system: mice
Assay: Determination of acute toxicity
Format: in vivo
Conditions: 250 mg/kg oral; of 10 animals (A) or 5 animals (B, Y, Z)
Procedure: (d) Determination of acute toxicity The acute toxicity was determined after oral administration to male and female mice. The compounds were administered as a suspension in tylose. The following table indicates the number of animals which died within 1, 7 and 14 days after receiving the doses stated: […]
Property: Animals which died during the observation period, 14 days
Reply: number alone, nothing else.

// query Recorded Animals which died during the observation period, 14 days for CN1C(C(=O)Nc2cncc(Cl)n2)=C(O)c2ccccc2S1(=O)=O [Compound A] , please?
// result 0

// query Recorded Animals which died during the observation period, 14 days for CN1C(C(=O)Nc2cncc(Cl)n2)=C(O)c2ccccc2S1(=O)=O [Compound B] , please?
// result 0

// query Recorded Animals which died during the observation period, 14 days for `CN1C(C(=O)Nc2cnccn2)=C(O)c2ccccc2S1(=O)=O` , please?
// result 4

// query Recorded Animals which died during the observation period, 14 days for `CN1C(C(=O)Nc2ccccn2)=C(O)c2ccccc2S1(=O)=O` , please?
// result 3
